Biological target: CIB1 and αIIb interaction (CIB1-GST : F-αIIb peptide) (Homo sapiens)
Construct: made in house; host or cells: BL-21 plus RIL cells (E. coli)
Sequence (Q99828 1-191): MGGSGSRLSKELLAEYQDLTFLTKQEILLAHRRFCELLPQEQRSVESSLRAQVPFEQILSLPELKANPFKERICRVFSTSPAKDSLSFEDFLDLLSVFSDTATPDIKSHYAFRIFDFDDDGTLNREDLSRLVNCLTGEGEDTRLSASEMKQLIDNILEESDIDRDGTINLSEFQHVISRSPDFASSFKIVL
Assay: FP assay, 1536-well qHTS format (primary and confirmatory screen)
Format: binding
Settings: qHTS primary screen hits, Table S2; negative sign = inhibitory curve; several classes where COUNT > 1
attribute.measured: Curve Class

Some compounds with known Curve Class results, for comparison:
>  <compound>
Cc1cccc(S(=O)(=O)Nc2cnccc2C(=O)Nc2nc(-c3ccccc3)cs2)c1.O=C(O)C(F)(F)F

>  <Curve Class>
-2.4

$$$$
>  <compound>
O=C(O)C(F)(F)F.c1nc(NCCc2c[nH]cn2)c2ccc(-c3ccc4c(c3)OCO4)cc2n1

>  <Curve Class>
-2.4

$$$$
>  <compound>
COc1ccc(C2CC(=O)Nc3nc(N4CCOCC4)sc32)c(OC)c1.O=C(O)C(F)(F)F (centres unmarked)

>  <Curve Class>
-2.4

$$$$
>  <compound>
CCCCCCCCCCCCCCCC[N+](C)(C)CC.[Br-]

>  <Curve Class>
-3

$$$$
>  <compound>
CCC(C)(C)C(=O)O[C@H]1C[C@@H](C)C=C2C=C[C@H](C)[C@H](CC[C@@H]3C[C@@H](O)CC(=O)O3)[C@H]21

>  <Curve Class>
-2.4

$$$$
>  <compound>
O=C(O)C(F)(F)F.O=C(O)c1ccc(-c2ccc3ncnc(NCc4cccs4)c3c2)o1

>  <Curve Class>
-2.4

$$$$
>  <compound>
O=C(O)C(F)(F)F.Oc1cc(NCCN2CCOCC2)cc2cccnc12

>  <Curve Class>
-2.2

$$$$

Next up:
Query (compound): `CSc1ccc(/C=C2/C(C)=C(CC(=O)O)c3cc(F)ccc32)cc1` ; field requested: Curve Class
-2.4
